test system: human mononucleocytes (PBMC) stimulated with staphylococcal enterotoxin B (SEB); test: cells; assay type: cell-based; conditions: read-out: EC50 Cytokine Release IL-13
pEC50: −log10 of the molar value.
property label: pEC50

INSERT INTO measurements (compound, measured_on, measured) VALUES
  ('O=C(NC(Cc1cc(=O)[nH]c2ccccc12)C(=O)O)c1ccc(Cl)cc1 (stereo not shown) [Rebamipide]', 'human mononucleocytes (PBMC) stimulated with staphylococcal enterotoxin B (SEB)', '< 3.00');

---

tested on: human mononucleocytes (PBMC) stimulated with staphylococcal enterotoxin B (SEB); test: cells; type: cell-based; details: read-out: EC50 Cytokine Release MIP-1α
pEC50: −log10 of the molar value.
property label: pEC50

INSERT INTO results (compound, measured) VALUES
  ('O=C(NC(Cc1cc(=O)[nH]c2ccccc12)C(=O)O)c1ccc(Cl)cc1 (stereo not shown) [Rebamipide]', '< 3.00');
